Ref: PubChem BioAssay AID248

# Tested on: L1210 leukemia ip in BDF1 mice, survival T/C
# PROCEDURE_DETAILS: NCI In Vivo Anticancer Drug Screen. Data for tumor model L1210 Leukemia (intraperitoneal) in B6D2F1 (BDF1) mice
# CONDITION_CONTEXT: endpoint: mean survival time; dose: 6.25 mg/kg/injection; schedule: Q04DX003 (ip); vehicle: saline; higher = longer survival
Toxic doses and inconclusive results are not listed.
READOUT_KIND: T/C

Provide T/C, tested on L1210 leukemia ip in BDF1 mice, survival T/C, for Cc1c2cnccc2c(C)c2c1c1ccccc1n2CCCN .
97 % of control

Provide T/C, tested on L1210 leukemia ip in BDF1 mice, survival T/C, for Nc1ccc(N)c(N)n1 .
95 % of control

Provide T/C, tested on L1210 leukemia ip in BDF1 mice, survival T/C, for C=CCOCCN1CCN(CCCN2c3ccccc3Sc3ccc(C(F)(F)F)cc32)CC1 .
101 % of control

Provide T/C, tested on L1210 leukemia ip in BDF1 mice, survival T/C, for [Cl][Cu][Cl] .
102 % of control

Provide T/C, tested on L1210 leukemia ip in BDF1 mice, survival T/C, for CC[N+](C)(CC)CCC[n+]1c(-c2ccccc2)c2cc(N)ccc2c2ccc(N)cc21 .
112 % of control

Provide T/C, tested on L1210 leukemia ip in BDF1 mice, survival T/C, for CC[N+](CC)(CC)Cc1ccccc1 .
113 % of control
